target: T1, Extracellular domain (ECD) of the canine IL-4 receptor alpha-V5 epitope-AviTag-His Tag (canine)
T1 construct: monomeric form isolated by size exclusion; also called canine IL-4RA-V5-Avi-His; canine IL-4RA
T1 chain: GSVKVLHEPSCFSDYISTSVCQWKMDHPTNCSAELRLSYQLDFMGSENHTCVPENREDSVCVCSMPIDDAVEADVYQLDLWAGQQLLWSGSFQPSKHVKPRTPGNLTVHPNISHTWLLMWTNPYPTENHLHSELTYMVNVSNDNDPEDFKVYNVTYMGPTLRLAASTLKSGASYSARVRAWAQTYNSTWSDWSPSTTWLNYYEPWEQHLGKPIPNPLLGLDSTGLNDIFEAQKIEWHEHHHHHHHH
procedure-summary: SPR, Fab-SASA captured on BSA;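 note: biacore T200 SPR, Fab-SASA variants from E. coli conditioned medium captured on BSA-coated CM5 chip, canine IL-4RA injected 120 s then 420 s dissociation, 1:1 model fit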
test-readout: kon

Task: Would you kindly share the measured kon for TB640_005 Fab-SASA VL-I33P (Fab, V domains shown, not shown: SASA tag then His-tag) VH: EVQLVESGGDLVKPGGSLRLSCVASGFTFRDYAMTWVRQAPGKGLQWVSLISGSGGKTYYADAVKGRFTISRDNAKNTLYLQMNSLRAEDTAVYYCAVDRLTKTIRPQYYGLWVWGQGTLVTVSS VL: DIVMTQTPLSLSVSPGETASISCRSSQSLLYSPGYNYLDWYLQKPGQSPQGLIYLGSKRASGVPDRFSGSGSGTDFTLRISRVEANDTGVYYCMQGLQSPLTFGQGTKLEIKR ?
Output: 109000 M⁻¹ s⁻¹

Task: Would you kindly share the measured kon for TB640_005 Fab-SASA VH-V114Q (Fab, V domains shown, not shown: SASA tag then His-tag) VH: EVQLVESGGDLVKPGGSLRLSCVASGFTFRDYAMTWVRQAPGKGLQWVSLISGSGGKTYYADAVKGRFTISRDNAKNTLYLQMNSLRAEDTAVYYCAVDRLTKTIRPQYYGLWQWGQGTLVTVSS VL: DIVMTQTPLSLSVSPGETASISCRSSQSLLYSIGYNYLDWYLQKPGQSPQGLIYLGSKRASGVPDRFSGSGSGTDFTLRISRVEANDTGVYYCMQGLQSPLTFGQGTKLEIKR ?
Output: 94100 M⁻¹ s⁻¹

Task: Would you kindly share the measured kon for TB640_005 Fab-SASA VH-T28P (Fab, V domains shown, not shown: SASA tag then His-tag) VH: EVQLVESGGDLVKPGGSLRLSCVASGFPFRDYAMTWVRQAPGKGLQWVSLISGSGGKTYYADAVKGRFTISRDNAKNTLYLQMNSLRAEDTAVYYCAVDRLTKTIRPQYYGLWVWGQGTLVTVSS VL: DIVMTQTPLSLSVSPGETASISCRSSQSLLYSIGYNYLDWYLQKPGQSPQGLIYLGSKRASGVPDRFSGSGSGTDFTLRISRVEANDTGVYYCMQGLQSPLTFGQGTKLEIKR ?
Output: 87800 M⁻¹ s⁻¹
